target under test: UniProt:P08684
Sequence (P08684 whole entry): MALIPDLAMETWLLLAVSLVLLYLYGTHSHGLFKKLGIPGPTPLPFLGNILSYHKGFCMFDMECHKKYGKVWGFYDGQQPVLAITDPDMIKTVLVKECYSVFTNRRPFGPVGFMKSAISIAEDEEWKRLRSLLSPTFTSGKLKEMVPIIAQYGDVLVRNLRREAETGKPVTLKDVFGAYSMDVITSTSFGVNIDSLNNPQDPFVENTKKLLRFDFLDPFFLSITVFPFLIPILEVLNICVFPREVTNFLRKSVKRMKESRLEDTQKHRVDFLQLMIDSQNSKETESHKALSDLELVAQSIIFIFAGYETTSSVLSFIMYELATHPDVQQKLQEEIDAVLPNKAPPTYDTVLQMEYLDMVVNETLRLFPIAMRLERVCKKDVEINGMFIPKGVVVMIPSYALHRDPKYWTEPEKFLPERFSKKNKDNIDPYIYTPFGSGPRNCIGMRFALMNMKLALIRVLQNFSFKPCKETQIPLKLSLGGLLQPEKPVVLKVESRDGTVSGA
protocol text: Determination of compound Kiapp against recombinant CYP3A4 enzyme (BFC fluorescent substrate)
Type: biochemical
setup conditions: Baculo. enzyme preparation, read-out: Kiapp (BFC, Baculo.)
pKi: −log10 of the molar value.
test readout: pKi

[
  {
    "item smiles": "CC(C)(COCc1ccccc1)NC(=O)c1ccccc1S(=O)(=O)Nc1cccnc1",
    "test readout": "pKi",
    "reported value": "< 6.00"
  },
  {
    "item smiles": "N#Cc1cncc(NS(=O)(=O)c2ccccc2C(=O)N2CCCCC2)c1",
    "test readout": "pKi",
    "reported value": "< 6.00"
  },
  {
    "item smiles": "CC(C)NC(=O)c1ccccc1S(=O)(=O)Nc1cccnc1",
    "test readout": "pKi",
    "reported value": "< 6.00"
  },
  {
    "item smiles": "Cc1ccncc1NS(=O)(=O)c1ccccc1C(=O)NC(C)(C)C",
    "test readout": "pKi",
    "reported value": "< 6.00"
  },
  {
    "item smiles": "CCCCNC(=O)c1ccccc1S(=O)(=O)Nc1cncc(C#N)c1",
    "test readout": "pKi",
    "reported value": "< 6.00"
  },
  {
    "item smiles": "COc1cncc(NS(=O)(=O)c2ccccc2C(=O)NCCc2ccc(F)cc2F)c1",
    "test readout": "pKi",
    "reported value": 7.22
  }
]

Here's the next entry for you.
Lookup: What measured pKi goes with Cc1ccncc1NS(=O)(=O)c1ccccc1C(=O)NCc1ccc(F)c(Cl)c1 ?
Found: 7.18

All values here come from patent US7868026B2.
